- Assay Remarks: Half life in C57 Black mouse kidney at 10 mg/kg, po
- Type: ADME, organism-based
Attribute Measured: half-life (min)
// return numeric value only (unit: min, not printed)

Briefly, half-life measured for O=C(CCCc1cccs1)N1CCN(c2ccc(C(F)(F)F)cc2)CC1 : 34.2

* * *

- Assay Remarks: AUClast in C57 Black mouse liver at 10 mg/kg, iv
- Format: ADME, organism-based
- Set-up: time 0 - last, route intravenous, dose 10 mg/kg
Attribute Measured: AUC(0-t) (ng·h/mL)
// return numeric value only (unit: ng·h/mL, not printed)

Briefly, AUC(0-t) measured for O=C(CCCc1cccs1)N1CCN(c2ccc(C(F)(F)F)cc2)CC1 : 487
